Items are presented alongside their recorded pIC50.
biological target: rabbit erythrocyte Na^+ /H^+ exchanger (Oryctolagus cuniculus); construct: endogenous in cells; assay: Inhibition of the rabbit erythrocyte Na^+ /H^+ exchanger (amiloride-sensitive Na^+ influx, flame photometry); conditions: erythrocytes of rabbits fed 2% cholesterol for six weeks; pH 7.4, 37° C., hyperosmolar salt/sucrose medium
Sequence (P23791 whole entry): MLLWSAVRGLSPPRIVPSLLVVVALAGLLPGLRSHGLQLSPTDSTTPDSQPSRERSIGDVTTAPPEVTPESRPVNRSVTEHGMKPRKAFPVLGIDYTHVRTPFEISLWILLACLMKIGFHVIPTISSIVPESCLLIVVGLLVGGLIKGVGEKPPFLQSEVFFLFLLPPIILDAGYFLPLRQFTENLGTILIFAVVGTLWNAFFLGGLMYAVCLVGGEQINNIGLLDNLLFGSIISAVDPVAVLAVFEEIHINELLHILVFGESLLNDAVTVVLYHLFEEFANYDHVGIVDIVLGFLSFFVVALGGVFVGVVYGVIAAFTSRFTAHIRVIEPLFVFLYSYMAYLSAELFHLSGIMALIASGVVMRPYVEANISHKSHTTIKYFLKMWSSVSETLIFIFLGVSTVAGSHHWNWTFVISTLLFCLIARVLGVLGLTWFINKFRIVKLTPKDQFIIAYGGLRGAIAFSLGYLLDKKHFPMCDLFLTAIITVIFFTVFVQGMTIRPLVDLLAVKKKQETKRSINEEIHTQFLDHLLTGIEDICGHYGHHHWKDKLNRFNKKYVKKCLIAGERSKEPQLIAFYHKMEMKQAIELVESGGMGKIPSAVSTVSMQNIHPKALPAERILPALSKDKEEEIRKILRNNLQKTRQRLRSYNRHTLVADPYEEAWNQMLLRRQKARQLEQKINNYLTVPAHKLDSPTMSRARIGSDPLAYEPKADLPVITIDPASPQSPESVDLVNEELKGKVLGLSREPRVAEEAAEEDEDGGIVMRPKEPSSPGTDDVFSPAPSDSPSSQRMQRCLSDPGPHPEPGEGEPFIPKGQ
Structures can show the parent of a compound that is named as a salt.
By convention, pIC50 is the negative base-10 log of a molar concentration.

Some compounds with known pIC50 results, for comparison:
| COMPOUND | pIC50 |
| --- | --- |
| COc1c(I)cc(C(F)(F)F)cc1C(=O)N=C(N)N [Example 2, hydrochloride] | 7.77 |
| COc1cc(C(F)(F)F)cc(C(=O)N=C(N)N)c1OC [Example 1, hydrochloride] | 7.28 |
| COc1cc(OC)c(C(F)(F)F)cc1C(=O)N=C(N)N [Example 7, hydrochloride] | 6.70 |

I am curious: what pIC50 value has been reported for COc1c(C(=O)N=C(N)N)cc(C(C)(C)C)cc1C(C)(C)C [Example 6, hydrochloride] ?
6.00
